# target desc: Human neutrophil elastase (Homo sapiens (Human), UniProt P08246)
# Sequence (P08246 30-267): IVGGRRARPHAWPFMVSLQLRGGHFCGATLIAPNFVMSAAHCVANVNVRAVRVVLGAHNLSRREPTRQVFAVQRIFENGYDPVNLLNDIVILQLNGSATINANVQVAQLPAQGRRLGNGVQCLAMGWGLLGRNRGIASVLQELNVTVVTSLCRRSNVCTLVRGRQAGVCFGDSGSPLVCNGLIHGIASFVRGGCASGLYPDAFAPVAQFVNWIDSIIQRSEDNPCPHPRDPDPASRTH
# method summary: Human Neutrophil Elastase Assay
# Assay type: biochemical
# settings: substrate MeOSuc-Ala-Ala-Pro-Val-AMC 250 μM, pH 7.5, fluorescence
The following compounds are shown together with reported IC50 values.
The response must be a number in µM with no trailing unit.

smiles record: CC[C@@H](C)n1cc(C(=O)NCc2ccc(S(C)(=O)=O)cc2)c(=O)c(-c2cccc(C(F)F)c2)c1C
quantity unit: µM
IC50: 0.008

smiles record: Cc1c(-c2cccc(C(F)(F)F)c2)c(=O)c(C(=O)NCc2ccc3c(c2)CCS3(=O)=O)cn1C(C)C
quantity unit: µM
IC50: 0.004

smiles record: Cc1c(-c2cccc(C(F)(F)F)c2)c(=O)c(C(=O)NCc2ccc(N3CCNC3=O)cc2)cn1C(C)C
quantity unit: µM
IC50: 0.065

smiles record: Cc1c(-c2cc(Cl)cc(C(F)(F)F)c2)c(=O)c(C(=O)NCc2ccc(S(C)(=O)=O)cc2)cn1C(C)C
quantity unit: µM
IC50: 0.048

smiles record: Cc1nnc(CNC(=O)c2cn(C3CCCC3)c(C)c(-c3cccc(C(F)F)c3)c2=O)o1
quantity unit: µM
IC50: 0.028

// lookup IC50 for Cc1c(-c2ccnc(C(F)(F)F)c2)c(=O)c(C(=O)NCc2ccc3c(c2)CCS3(=O)=O)cn1C(C)C
0.015

// lookup IC50 for Cc1c(-c2cccc(C(F)(F)F)c2)c(=O)c(C(=O)NCc2ccc(S(C)(=O)=O)cn2)cn1CC(C)C
0.03
